# system_under_test: Muscarinic acetylcholine receptor M3 (Homo sapiens, UniProt P20309)
# Sequence (P20309 whole entry, looked up): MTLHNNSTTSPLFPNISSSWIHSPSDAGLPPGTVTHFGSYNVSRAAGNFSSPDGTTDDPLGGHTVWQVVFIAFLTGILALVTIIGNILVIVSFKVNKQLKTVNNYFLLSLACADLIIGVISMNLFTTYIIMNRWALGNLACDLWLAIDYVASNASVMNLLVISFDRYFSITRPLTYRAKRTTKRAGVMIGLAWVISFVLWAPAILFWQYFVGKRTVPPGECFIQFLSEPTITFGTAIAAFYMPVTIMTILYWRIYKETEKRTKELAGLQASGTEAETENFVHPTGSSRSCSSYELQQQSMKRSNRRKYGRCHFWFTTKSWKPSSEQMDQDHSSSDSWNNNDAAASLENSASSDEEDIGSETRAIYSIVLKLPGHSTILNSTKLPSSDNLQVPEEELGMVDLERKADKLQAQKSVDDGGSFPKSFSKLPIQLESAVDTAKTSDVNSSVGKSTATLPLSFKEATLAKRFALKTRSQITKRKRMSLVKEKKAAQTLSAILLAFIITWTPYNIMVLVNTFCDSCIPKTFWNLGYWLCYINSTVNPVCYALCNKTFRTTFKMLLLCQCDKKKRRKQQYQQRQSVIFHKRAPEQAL
# experiment_summary: Inhibition of [3H]NMS binding to human cloned M3 receptor expressed in CHO cells at 1 uM
# Assay type: cell-based
observation_type: inhibition (%)
# number only, unit % dropped from output

Asked: Would you kindly share the measured inhibition for `Nc1ccc(CNC(=O)[C@H]2CCCN2C(=O)[C@@H]2CCCN2C(=O)CC(c2ccccc2)(c2ccccc2)c2ccccc2)cc1` ?
Given back: 6

Asked: Would you kindly share the measured inhibition for `O=C([C@H]1CCCN1C(=O)[C@@H]1CCCN1C(=O)CC(c1ccccc1)(c1ccccc1)c1ccccc1)N1CCCNCC1` ?
Given back: -2

Asked: Would you kindly share the measured inhibition for `O=C(NC1CCNCC1)[C@H]1CCCN1C(=O)[C@@H]1CCCN1C(=O)CC(c1ccccc1)(c1ccccc1)c1ccccc1` ?
Given back: 4

Asked: Would you kindly share the measured inhibition for O=C([C@H]1CCCN1C(=O)[C@@H]1CCCN1C(=O)CC(c1ccccc1)(c1ccccc1)c1ccccc1)N1CCC2NCCC21 (stereo partly drawn) ?
Given back: 7

Asked: Would you kindly share the measured inhibition for `O=C([C@H]1CCCN1C(=O)[C@@H]1CCCN1C(=O)CC(c1ccccc1)(c1ccccc1)c1ccccc1)N1CCCNC1` ?
Given back: 12

Asked: Would you kindly share the measured inhibition for `Nc1cccc(NC(=O)[C@H]2CCCN2C(=O)[C@@H]2CCCN2C(=O)CC(c2ccccc2)(c2ccccc2)c2ccccc2)c1` ?
Given back: 0

Asked: Would you kindly share the measured inhibition for O=C([C@H]1CCCN1C(=O)[C@@H]1CCCN1C(=O)CC(c1ccccc1)(c1ccccc1)c1ccccc1)N1CC2CNCC2C1 (stereo partly drawn) ?
Given back: 7

Asked: Would you kindly share the measured inhibition for `NCC1CCN(C(=O)[C@H]2CCCN2C(=O)[C@@H]2CCCN2C(=O)CC(c2ccccc2)(c2ccccc2)c2ccccc2)CC1` ?
Given back: 59

----------
# system_under_test: Muscarinic acetylcholine receptor M4 (Homo sapiens, UniProt P08173)
# Sequence (P08173 whole entry): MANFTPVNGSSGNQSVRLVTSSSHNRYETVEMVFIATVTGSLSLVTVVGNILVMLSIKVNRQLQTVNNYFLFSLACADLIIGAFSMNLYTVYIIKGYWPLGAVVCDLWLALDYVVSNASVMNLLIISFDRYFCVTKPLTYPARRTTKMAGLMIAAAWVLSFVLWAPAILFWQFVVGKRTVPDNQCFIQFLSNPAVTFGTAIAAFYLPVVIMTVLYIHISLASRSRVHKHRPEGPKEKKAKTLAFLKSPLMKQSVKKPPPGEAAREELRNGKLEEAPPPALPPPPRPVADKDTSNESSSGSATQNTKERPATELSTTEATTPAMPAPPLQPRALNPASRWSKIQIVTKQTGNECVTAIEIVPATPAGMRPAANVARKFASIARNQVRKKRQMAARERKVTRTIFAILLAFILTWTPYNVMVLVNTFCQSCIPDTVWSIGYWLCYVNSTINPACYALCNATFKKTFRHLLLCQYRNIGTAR
observation_type: Ki (nM)
# number only, unit nM dropped from output

Asked: Would you kindly share the measured Ki for `O=C(NCCC1CCNCC1)[C@H]1CCCN1C(=O)[C@@H]1C[C@@H](O)CN1C(=O)CC(c1ccc(Cl)cc1)(c1ccc(Cl)cc1)c1ccc(Cl)cc1` ?
Given back: 24

Asked: Would you kindly share the measured Ki for `O=C(NC[C@@H]1CCCNC1)[C@H]1CCCN1C(=O)[C@@H]1C[C@@H](O)CN1C(=O)CC(c1ccccc1)(c1ccccc1)c1ccccc1` ?
Given back: 290

Asked: Would you kindly share the measured Ki for `O=C(NCC1CCN(CC2CCCC2)CC1)[C@H]1CCCN1C(=O)[C@@H]1C[C@@H](O)CN1C(=O)CC(c1ccc(F)cc1)(c1ccc(F)cc1)c1ccc(F)cc1` ?
Given back: 11

Asked: Would you kindly share the measured Ki for `O=C(NC[C@@H]1CCCNC1)[C@H]1CCCN1C(=O)[C@@H]1C[C@@H](O)CN1C(=O)CC(c1ccc(F)cc1)(c1ccc(F)cc1)c1ccc(F)cc1` ?
Given back: 39
